target: Calmodulin-1 (Homo sapiens) (UniProt P0DP23); assay: small molecules binding Ca-loaded calmodulin-1 – biochemical, small-molecule microarray, Cy5-labelled CALM1, plus calcium, artefact control for SMM control-protein annotation, profiling panel (AID 1112); details: Cy5-CALM1 binding fluorescence, higher = more signal;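 also: score merges spot fluorescence with signal to noise from triplicate slides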
Listed here are compounds together with their documented composite z-score.

- STRUCTURE: "C#CCN1[C@@H](Cc2ccccc2)C(=O)O[C@H](Cc2ccccc2)[C@@H]1/C=C/C1CC1"
  MEASUREMENT_TARGET: "Calmodulin-1 (Homo sapiens) (UniProt P0DP23)"
  READOUT_VALUE: -0.717
- STRUCTURE: "COC(=O)C(CC#Cc1ccc2c(c1)[C@]1(C(=O)N2)[C@H](C(=O)N2CCc3cc(OC)c(OC)cc3C2)[C@H]2C(=O)O[C@H](c3ccccc3)[C@H](c3ccccc3)N2[C@@H]1c1ccccc1OCCO)C(=O)OC"
  MEASUREMENT_TARGET: "Calmodulin-1 (Homo sapiens) (UniProt P0DP23)"
  READOUT_VALUE: -0.509
- STRUCTURE: "COc1cc(CO)cc(I)c1O[C@H]1C=C(C(=O)NCCO)C[C@@H](NC2CCCCCC2)[C@@H]1O"
  MEASUREMENT_TARGET: "Calmodulin-1 (Homo sapiens) (UniProt P0DP23)"
  READOUT_VALUE: -0.572

Input: Return reported composite z-score. Input compound: `CN(C)CCCNC(=O)[C@@H]1c2ccccc2C(=O)N(Cc2ccccc2C(F)(F)F)[C@H]1c1ccc(CO)cc1`
Output: -0.263

---

assay: changes in parasitized red cell lysis, either direction – P. falciparum Indochina, OD700, 3 h, PSAC antagonist project, primary screen (AID 1156); settings: P. falciparum-infected erythrocytes, osmotic lysis, higher = more signal, called active from +8 up or from −8 down
MEASUREMENT_LABEL: z-score
Keep the answer to the number alone.

Some compounds with recorded z-score:
- COMPOUND: "COc1cc(CO)cc(I)c1O[C@H]1C=C(C(=O)NCCO)C[C@@H]2O[C@H]12"
  z-score: 2.06
- COMPOUND: "CCOC(=O)C[C@H]1[C@H](OC(=O)Cc2ccc3c(c2)OCO3)[C@@H](NC(=O)Cc2ccc(OC)cc2)c2cc(OCCCO)ccc2N1C(=O)Cc1ccc(OC)cc1"
  z-score: -1.02

The record that follows has no z-score shown yet.
Input: Return reported z-score. Input compound: C=CCC(OC(C)=O)[C@@H]1[C@@H](N(Cc2ccc(-c3cccc(C(F)(F)F)c3)o2)C(=O)Cc2ccc(F)cc2)c2cc(OCCCO)ccc2N1C(=O)Cc1ccc2ccccc2c1 (stereo partly drawn)
Output: -0.554

---

molecular target: NADPH oxidase 4 (Homo sapiens); assay: compounds shifting NOX4 Amplex Red fluorescence – cell-based, HEK293-NOX4, tetracycline-induced, NOX inhibitor project, primary screen (AID 1160); conditions: HEK293-NOX4, Amplex Red H2O2 fluorescence, 45 min; higher = more signal, called active from +8 up or from −8 down
Calls of active or inactive are those of the source.
MEASUREMENT_LABEL: z-score

Some molecules with recorded z-score:
- MOLECULE: "COc1ccc([Si](C)(C)[C@@H]2[C@@H](CC(=O)N(CCO)Cc3ccccc3)O[C@]3(C(=O)N(Cc4ccc(N5C(=O)c6cccc7cccc5c67)cc4)c4ccccc43)[C@H]2C)cc1"
  READOUT_VALUE: "-0.496 (inactive)"
- MOLECULE: "O=C(NC1CC1)[C@@H]1c2ccccc2C(=O)N(CC23CC4CC(CC(C4)C2)C3)[C@H]1c1ccc(CO)cc1"
  READOUT_VALUE: "0.157 (inactive)"
- MOLECULE: "C=CCN1C(=O)[C@@]2(O[C@@H](CCn3cc([C@H](O)c4ccccc4)nn3)[C@H]([Si](C)(C)c3ccc(OC)cc3)[C@H]2C)c2cc(N3C(=O)c4cccc5cccc3c45)ccc21"
  READOUT_VALUE: "1.57 (inactive)"
- MOLECULE: "COc1ccc(C#Cc2ccc3c(c2)[C@]2(C(=O)N3)[C@H](C(=O)O)[C@H]3C(=O)O[C@H](c4ccccc4)[C@H](c4ccccc4)N3[C@@H]2c2ccccc2OCCO)cc1"
  READOUT_VALUE: "-0.415 (inactive)"

Input: Return reported z-score. Input molecule: C=C(C)[C@@H]1CC=C(C(O)C2C=CC3C(=O)N(c4ccccc4)C(=O)C3N2Nc2ccc([N+](=O)[O-])cc2)CC1 (stereo partly specified)
Output: -2.07 (inactive)

Input: Return reported z-score. Input molecule: `COCCn1c(C(=O)N(C)C)cc2c1C[C@H]1CN(C(=O)c3ccccc3)[C@@](Cc3ccc(OC)cc3)(C(=O)OC)[C@@H]21`
Output: 1.43 (inactive)

---

test system: XIP peptide (Xip251-270) binding; assay: XIP fragment 251-270 binding compounds – biochemical, small-molecule microarray, fluorescence 635/667 nm, 0.1 µg/mL protein, primary screen (AID 1182); details: fluorescent protein binding, 635 nm, higher = more signal, called active from +8 up or from −8 down
// label = Condition met if composite z-score is not less than 0.3, otherwise Condition not met

Input: Please tell me: is the compound C=CC[C@]1(C(=O)NCC(O)CO)COC(c2ccc(OCCCO)cc2)=N1 (stereo not given in full) at or over 0.3 in terms of composite z-score?
Output: Condition not met

Input: Please tell me: is the compound CCC(CC)C(O)C1C=CC2C(=O)N(c3ccccc3)C(=O)C2N1Nc1ccccc1F (stereo not given) at or over 0.3 in terms of composite z-score?
Output: Condition met

Input: Please tell me: is the compound `O=C(NCc1ccccc1)[C@@H]1c2ccccc2C(=O)N(Cc2ccc(OC(F)(F)F)cc2)[C@H]1c1ccc(CO)cc1` at or over 0.3 in terms of composite z-score?
Output: Condition not met

Input: Please tell me: is the compound `NC(=O)NCC#Cc1ccc2c(c1)[C@]1(C(=O)N2)[C@H](c2ccc(OCCO)cc2)N2[C@H](c3ccccc3)[C@H](c3ccccc3)OC(=O)[C@H]2[C@@H]1C(=O)O` at or over 0.3 in terms of composite z-score?
Output: Condition met

Input: Please tell me: is the compound `CC(C)C(=C=CC[C@H](O)c1ccccc1OCCO)C[C@H](O)c1cc(Cl)cc(Cl)c1O` at or over 0.3 in terms of composite z-score?
Output: Condition met

Input: Please tell me: is the compound CC(C)C(CO)N1C(=O)[C@@H]2C3C(=O)OCCC/C=C\[C@H]3OC23C=CCN(Cc2ccccc2)C(=O)[C@@H]13 (stereo not given in full) at or over 0.3 in terms of composite z-score?
Output: Condition met

Input: Please tell me: is the compound CC1CC/C=C\[C@H]2OC34C=CCN(CCN5CCOCC5)C(=O)[C@H]3N(CCCO)C(=O)[C@@H]4C2C(=O)O1 (stereo not given in full) at or over 0.3 in terms of composite z-score?
Output: Condition met

Input: Please tell me: is the compound `CN(C)CCCCNC(=O)[C@H]1C[C@H]2C(=O)N3CCC[C@H]3C(=O)N2[C@H]1c1cccc(OCCO)c1` at or over 0.3 in terms of composite z-score?
Output: Condition met

---

tested on: Plasmodium falciparum Sir2 (PF13_0152, Sir2A); test: Plasmodium falciparum Sir2A binding compounds – biochemical, small-molecule microarray, 635 nm fluorescence, primary screen (AID 1098); details: fluorescence 635 nm, higher = more signal;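 also: score merges spot fluorescence intensity with its signal-to-noise ratio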
MEASUREMENT_LABEL: composite z-score
Keep the answer to the number alone.

Some compounds with recorded composite z-score:
- COMPOUND: "COC(=O)C(CC#Cc1ccc2c(c1)[C@]1(C(=O)N2)[C@H](C(=O)NC[C@H](O)c2ccccc2)[C@H]2C(=O)O[C@H](c3ccccc3)[C@H](c3ccccc3)N2[C@@H]1c1ccccc1OCCO)C(=O)OC"
  READOUT_VALUE: 1.19
- COMPOUND: "COc1ccc(CCNC(=O)[C@@H]2c3ccccc3C(=O)N(Cc3ccccc3OC)[C@H]2c2ccc(CO)cc2)cc1"
  READOUT_VALUE: 1.1
- COMPOUND: "COc1cc(CO)cc(I)c1O[C@H]1C=C(C(=O)NCCO)C[C@@H](NC2CCCCCC2)[C@@H]1O"
  READOUT_VALUE: 0.515
- COMPOUND: "CC(=O)OCC1C2CC[C@H]3C(OCc4ccc(F)cc4C(F)(F)F)OC[C@]4(C)[C@H]3C2=C(CN4C(=O)OC(C)(C)C)[C@H](C)C1COC(C)=O (some centres not stated)"
  READOUT_VALUE: 0.547
- COMPOUND: "CCOC(=O)C[C@H]1[C@H](OC(=O)c2ccccc2-c2ccccc2)[C@@H](NC(=O)C2CCCCC2)c2cc(OCCCO)ccc2N1C(=O)c1ccc2ccccc2n1"
  READOUT_VALUE: 0.486
- COMPOUND: "CC(C)=CCCC=C(C)C(O)C1C=CC2C(=O)N(c3ccccc3)C(=O)C2N1Nc1ccc(C#N)cc1 (configuration not stated)"
  READOUT_VALUE: 0.669

Input: Return reported composite z-score. Input compound: CC1CC/C=C\[C@H]2OC34C=CCN(Cn5nnc6ccccc65)C(=O)[C@H]3N(CCCCCCO)C(=O)[C@@H]4C2C(=O)O1 (some centres not stated)
Output: 0.765

Values compiled from PubChem BioAssay.
